# TARGET UNDER TEST: Calmodulin-1 (Homo sapiens) (UniProt P0DP23)
# TEST PROTOCOL: CALM1 binders on microarrays, EGTA buffer, profiling panel, biochemical, small-molecule microarray, Cy5-labelled CALM1 (AID 1111);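 further: labelled calmodulin applied in Tris saline Tween buffer holding calcium plus EGTA and DTT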
# TEST CONTEXT: Cy5-CALM1 binding fluorescence, higher = more signal
PARAMETER MEASURED: composite z-score

[
  {
    "COMPOUND": "CC(CCN1CCCCc2nc(C)c(C)cc21)=NOC[C@@H](O)[C@H]1O[C@@H]2OC(C)(C)O[C@@H]2[C@H]1O",
    "EXPERIMENTAL VALUE": -0.554
  },
  {
    "COMPOUND": "CCOC(=O)[C@H](Cc1ccccc1)NC(=O)CCC1CC(OC(=O)NCc2ccc3c(c2)OCO3)CC2(CCCC(COC(=O)NCCOc3ccccc3)O2)O1 (some centres not stated)",
    "EXPERIMENTAL VALUE": 0.505
  },
  {
    "COMPOUND": "COCOc1ccc(Br)cc1C(=O)C=Cc1ccc2c(c1)OCO2",
    "EXPERIMENTAL VALUE": -0.978
  },
  {
    "COMPOUND": "C[C@@H](c1ccccc1)N1C(=O)[C@H]2[C@H]3[C@H](O)[C@H](O)CC(=NNC(=O)OCc4ccccc4)[C@@H]3CC[C@H]2C1=O",
    "EXPERIMENTAL VALUE": -1.16
  },
  {
    "COMPOUND": "CCOC(=O)CCN1C(=O)[C@H]2[C@H]3[C@H](O)[C@H](O)CC(=NOCC(C)C)[C@@H]3CC[C@H]2C1=O",
    "EXPERIMENTAL VALUE": -1.92
  }
]

Hello, please tell me recorded composite z-score for this one: CCOC(=O)CCN1C(=O)[C@H]2[C@H]3[C@H](O)[C@H](O)CC(=O)[C@@H]3CC[C@H]2C1=O 0.0068

Hello, please tell me recorded composite z-score for this one: CCOC(=O)[C@H](Cc1ccccc1)NC(=O)CCC1CC(OC(=O)NCc2ccc3c(c2)OCO3)CC2(CCCC(COC(=O)NCCCN3CCCC3=O)O2)O1 (some centres not stated) 0.972

---

# System: Human papillomavirus type 1a E7 protein (residues 1-88)
# TEST PROTOCOL: HPV1a E7 small-molecule binders, primary screen, biochemical, small-molecule microarray, residues 1-88, 635 nm (AID 1129)
# TEST CONTEXT: small-molecule microarray binding, fluorescence 635 nm; higher = more signal
Label YES for high-side composite z-score (at or above -0.1) and NO for low-side composite z-score (below it).

# example entries with known answers
[
  {
    "COMPOUND": "COC(=O)[C@@H]1CC[C@H](C)[C@@H](c2ccc(C)cc2)N1C(=O)c1ccc(C=NO[C@@H](C)c2cc(-c3c(C)cc(C)cc3C)no2)cc1",
    "TARGET UNDER TEST": "Human papillomavirus type 1a E7 protein (residues 1-88)",
    "ASSIGNED CLASS": "YES"
  },
  {
    "COMPOUND": "CCOC(=O)CCN1C(=O)[C@H]2[C@H]3[C@H](O)[C@H](O)CC(=NNC(=O)OCc4ccccc4)[C@H]3CC[C@H]2C1=O",
    "TARGET UNDER TEST": "Human papillomavirus type 1a E7 protein (residues 1-88)",
    "ASSIGNED CLASS": "NO"
  },
  {
    "COMPOUND": "CC(CCN1CCCCc2nc(C)c(C)cc21)=NOC[C@@H](O)[C@H]1O[C@@H]2OC(C)(C)O[C@@H]2[C@H]1O",
    "TARGET UNDER TEST": "Human papillomavirus type 1a E7 protein (residues 1-88)",
    "ASSIGNED CLASS": "NO"
  },
  {
    "COMPOUND": "CCO[C@H](c1cc(OC)cc([N+](=O)[O-])c1OC)[C@H](C)[C@@H](OC)[C@H](C)C=CCC(=O)OC",
    "TARGET UNDER TEST": "Human papillomavirus type 1a E7 protein (residues 1-88)",
    "ASSIGNED CLASS": "YES"
  },
  {
    "COMPOUND": "C=CC[C@@H]1C=C[C@H](Oc2ccc(C)cc2)[C@@H](COC(=O)NCc2cccc3ccccc23)O1",
    "TARGET UNDER TEST": "Human papillomavirus type 1a E7 protein (residues 1-88)",
    "ASSIGNED CLASS": "YES"
  }
]

composite z-score >= -0.1 for CC(C)=NOC[C@@H](O)[C@H]1O[C@@H]2OC(C)(C)O[C@@H]2[C@H]1O ? YES

composite z-score >= -0.1 for CO[C@@H]1COC(=O)[C@H](COCc2ccccc2)NC(=O)CC=C[C@@H](C)[C@H](OC)COC(=O)[C@@H](C)NC(=O)CC=C[C@H]1C ? NO

composite z-score >= -0.1 for COC(=O)[C@H](C)NC(=O)CCC1CC(OC(=O)NCc2ccc3c(c2)OCO3)CC2(CCCC(COC(=O)NCCc3ccc(Cl)cc3)O2)O1 (stereo partly drawn) ? YES

composite z-score >= -0.1 for CCOC(=O)[C@H](CC(C)C)NC(=O)CCC1CC(OC(=O)NCc2ccc3c(c2)OCO3)CC2(CCCC(COC(=O)NCCc3ccc(Cl)cc3)O2)O1 (stereo partly drawn) ? YES

composite z-score >= -0.1 for Cc1ccc(S(=O)(=O)N[C@@H]2COC(=O)CC=C[C@@H](C)[C@H](NS(=O)(=O)c3ccc(C)cc3)COC(=O)[C@H](C)NC(=O)CC=C[C@H]2C)cc1 ? NO

composite z-score >= -0.1 for C=CC[C@@H]1C=C[C@H](ON=C(C)CCN2CCCc3nc(C)c(C)cc32)[C@@H](CO)O1 ? YES
